Source listed as ChEMBL document CHEMBL3244116.

Test system: Mus musculus
test.details: Toxicity in Swiss albino mouse assessed as convulsion at 100 mg/kg, sc measured up to 20 mins
Type: organism-based
Parameters: dose 100 mg/kg, route subcutaneous
condition.description: in vivo
property.label: Activity

# molecule, study.target, Activity
data = [
    ("CCCOc1cc(C)c(N(CC)C(=O)CN)c(C)c1.O=C(O)C(=O)O", "Mus musculus", "0%"),
    ("Cc1cccc(C)c1NC(=O)C(C)N (configuration not stated) [TOCAINIDE]", "Mus musculus", "0%"),
    ("CCN(CC)CC(=O)Nc1c(C)cccc1C [LIDOCAINE]", "Mus musculus", "100%"),
    ("Cc1cccc(C)c1NC(=O)CN [GLYCINEXYLIDIDE]", "Mus musculus", "0%"),
    ("CCCOc1cc(C)c(N(C)C(=O)CN)c(C)c1.O=C(O)C(=O)O", "Mus musculus", "0%"),
    ("CCCCOc1cc(C)c(N(C)C(=O)CN)c(C)c1.O=C(O)C(=O)O", "Mus musculus", "0%"),
]

Recorded Activity of CCC(N)C(=O)N(CC)c1c(C)cccc1C.Cl (configuration not stated) , please.
100%
